Provenance of the data: ChEMBL document CHEMBL1123775

Readings of ED50 for the listed compounds
- Tested on: Rattus norvegicus
- test.name: Effect of in vivo DOPA accumulation in reserpine-pretreated rats at limbic region, at 5 mg/kg dosage administered subcutaneously
- Format: functional, Limbic system
- condition.summary: Rattus norvegicus, Limbic system, sc; route subcutaneous; read-out: ED50
Write the value in µmol/kg as a bare number.

Illustrative cases are given below, each with its answer.
entry.smiles: CCCN(CCC)[C@@H]1CCc2c(O)cccc2C1
ED50 [µmol/kg]: 0.41
//
entry.smiles: CCCN(CCC)[C@H]1CCc2c(O)cccc2C1
ED50 [µmol/kg]: 0.004
//
entry.smiles: CN1CCc2cccc3c2[C@H]1Cc1ccc(O)c(O)c1-3
ED50 [µmol/kg]: 0.041

Input: Given `CCCN(CCC)[C@@H]1Cc2cccc(O)c2C[C@@H]1C` , state its recorded ED50.
Output: 0.005
